- Test Method Notes: Saturation solubility of Gemcitabine free base in various solvents
- Format: physicochemical
- Settings: N-methyl pyrrolidone (NMP), organic solvent or mixture, thermodynamic from solid, saturation solubility in N-methyl pyrrolidone (NMP)
- Description: In order to select a biocompatible solvent for the development of in situ depot, we carried out saturation solubility of Gemcitabine free base in 12 different organic solvent which are safe to be used for subcutaneous administration in mice. […] However, since NMP is already used in marketed in situ depot formulations and is FDA approved, we used it as a biocompatible solvent to prepare the various polymeric solutions.
Value Kind: solubility

Q: Form field: reported solubility of Nc1ccn([C@@H]2O[C@H](CO)[C@@H](O)C2(F)F)c(=O)n1 [Gemcitabine free base, Gemcitabine]
Ans: ~470 mg/mL

----------
- Test Method Notes: Saturation solubility of Gemcitabine free base in various solvents
- Format: physicochemical
- Settings: N,N-dimethylacetamide (DMA), organic solvent or mixture, thermodynamic from solid, saturation solubility in N,N Dimethylacetamide (DMA)
Value Kind: solubility

Q: Form field: reported solubility of Nc1ccn([C@@H]2O[C@H](CO)[C@@H](O)C2(F)F)c(=O)n1 [Gemcitabine free base, Gemcitabine]
Ans: ~616 mg/mL

----------
- Test Method Notes: Saturation solubility of Gemcitabine free base in various solvents
- Type: physicochemical
- Settings: diglyme, organic solvent or mixture, thermodynamic from solid, saturation solubility in Diglyme
Value Kind: solubility (µg/mL)
Number in µg/mL, nothing else.

Q: Form field: reported solubility of Nc1ccn([C@@H]2O[C@H](CO)[C@@H](O)C2(F)F)c(=O)n1 [Gemcitabine free base, Gemcitabine]
Ans: 3810

----------
- Test Method Notes: Saturation solubility of Gemcitabine free base in various solvents
- Type: physicochemical
- Settings: tetrahydrofurfuryl alcohol, organic solvent or mixture, thermodynamic from solid, saturation solubility in Tetrahydrofurfuryl alcohol
Value Kind: solubility (mg/mL)
Number in mg/mL, nothing else.

Q: Form field: reported solubility of Nc1ccn([C@@H]2O[C@H](CO)[C@@H](O)C2(F)F)c(=O)n1 [Gemcitabine free base, Gemcitabine]
Ans: 221

----------
- Test Method Notes: Saturation solubility of Gemcitabine free base in various solvents
- Assay type: physicochemical
- Settings: isosorbide dimethyl ether, organic solvent or mixture, thermodynamic from solid, saturation solubility in Isosorbide dimethyl ether
Value Kind: solubility (µg/mL)
Number in µg/mL, nothing else.

Q: Form field: reported solubility of Nc1ccn([C@@H]2O[C@H](CO)[C@@H](O)C2(F)F)c(=O)n1 [Gemcitabine free base, Gemcitabine]
Ans: 8390

----------
- Test Method Notes: Saturation solubility of Gemcitabine free base in various solvents
- Format: physicochemical
- Settings: polyethylene glycol 300, organic solvent or mixture, thermodynamic from solid, saturation solubility in Polyethylene glycol 300
- Source text: In order to select a biocompatible solvent for the development of in situ depot, we carried out saturation solubility of Gemcitabine free base in 12 different organic solvent which are safe to be used for subcutaneous administration in mice. […] However, since NMP is already used in marketed in situ depot formulations and is FDA approved, we used it as a biocompatible solvent to prepare the various polymeric solutions.
Value Kind: solubility (mg/mL)
Number in mg/mL, nothing else.

Q: Form field: reported solubility of Nc1ccn([C@@H]2O[C@H](CO)[C@@H](O)C2(F)F)c(=O)n1 [Gemcitabine free base, Gemcitabine]
Ans: 185

----------
- Test Method Notes: Saturation solubility of Gemcitabine free base in various solvents
- Type: physicochemical
- Settings: tetraglycol/glycofurol, organic solvent or mixture, thermodynamic from solid, saturation solubility in Tetraglycol/Glycofurol
Value Kind: solubility (mg/mL)
Number in mg/mL, nothing else.

Q: Form field: reported solubility of Nc1ccn([C@@H]2O[C@H](CO)[C@@H](O)C2(F)F)c(=O)n1 [Gemcitabine free base, Gemcitabine]
Ans: 129
